Protocol: Vitamin contents in transfusion fluid containers of Examples 4 and 5 after autoclaving and 40° C. four-month storage, bioassay (vitamin B12, biotin) or HPLC (other vitamins)
Type: physicochemical
Particulars: Example 5 transfusion fluid container; immediately after sterilization
Protocol: In a holder produced from a three-layered film (the thickness of each layer: 10 μm) in which the outer and the inner layers are made of polyethylene and the intermediate layer is made of ethylene.tetracyclododecene copolymer (trade name: Apel, product of Mitsui Chemicals, Inc.), solution (C) (4 ml) was charged and the inlet was melt-sealed. In a two-compartment container, the prepared holder was attached to one of the compartments. […]
Where a name gives a salt, the structure may show the parent alone.
Consider the following compounds; for each one, report its Vitamin content, percentage (%) of the initially incorporated amount.
Write down the numeric answer in % and omit the unit.

Look at this compound and give its reported Vitamin content, percentage (%) of the initially incorporated amount. Nc1nc2ncc(CNc3ccc(C(=O)N[C@@H](CCC(=O)O)C(=O)O)cc3)nc2c(=O)[nH]1 98.3

Input Cc1ncc(C[n+]2csc(CCO)c2C)c(N)n1 [Thiamin hydrochloride (B1), thiamin hydrochloride] 93.5

Input Cc1cc2nc3c(=O)[nH]c(=O)nc-3n(C[C@H](O)[C@H](O)[C@H](O)COP(=O)(O)O)c2cc1C [Vitamin B2, sodium riboflavin phosphate] 85.9

###

Protocol: Vitamin content of solution (C) in polyolefin holders after autoclaving and storage at 40° C. for four months, measured through HPLC (Example 3)
Type: physicochemical
Particulars: holder No. 1, polyethylene, 30 μm, resin 7.4 cm^3 per μmol vitamin D; after sterilization
Procedure: Solution (C) (4 ml) prepared in Example 1 was charged into each of holders made of the materials shown in Table 3, to thereby obtain a holder which contains a solution of vitamin D3. Each of these holders containing a solution of vitamin D3 was subjected to autoclaving and wrapped in a nylon multi-layered-film bag together with a deoxidizing agent (trade name: Ageless, product of Mitsubishi Gas Chem. Co., Inc.). […] Thereafter, the content of each vitamin in each holder was measured through HPLC. […]
Endpoint name: Vitamin content (%) of initially incorporated amount
Write down the numeric answer in % and omit the unit.

Look at this compound and give its reported Vitamin content (%) of initially incorporated amount. CC(=O)Oc1c(C)c(C)c2c(c1C)CCC(C)(CCC[C@H](C)CCC[C@H](C)CCCC(C)C)O2 (stereo partly drawn) [Vitamin E, tocopherol acetate] 98.7

Input CC1=C(C/C=C(\C)CCC[C@H](C)CCC[C@H](C)CCCC(C)C)C(=O)c2ccccc2C1=O 95.4

Input CCCCCCCCCCCCCCCC(=O)OC/C=C(C)/C=C/C=C(C)/C=C/C1=C(C)CCCC1(C)C [Vitamin A, retinol palmitate] 91.1

Input C=C1CC[C@H](O)C/C1=C/C=C1\CCC[C@]2(C)[C@@H]([C@H](C)CCCC(C)C)CC[C@@H]12 95.4

Input Cc1cc2nc3c(=O)[nH]c(=O)nc-3n(C[C@H](O)[C@H](O)[C@H](O)COP(=O)(O)O)c2cc1C [Vitamin B2, sodium riboflavin phosphate] 94.8

Input O=C1O[C@H]([C@@H](O)CO)C(O)=C1O 96.2

###

Protocol: Vitamin content of solution (C) in polyolefin holders after autoclaving and storage at 40° C. for four months, measured through HPLC (Example 3)
Type: physicochemical
Particulars: holder No. 5, polypropylene, 250 μm, resin 123.2 cm^3 per μmol vitamin D; after sterilization
Endpoint name: Vitamin content (%) of initially incorporated amount
Write down the numeric answer in % and omit the unit.

Look at this compound and give its reported Vitamin content (%) of initially incorporated amount. O=C1O[C@H]([C@@H](O)CO)C(O)=C1O 96.8

Input C=C1CC[C@H](O)C/C1=C/C=C1\CCC[C@]2(C)[C@@H]([C@H](C)CCCC(C)C)CC[C@@H]12 87.5

Input Cc1cc2nc3c(=O)[nH]c(=O)nc-3n(C[C@H](O)[C@H](O)[C@H](O)COP(=O)(O)O)c2cc1C [Vitamin B2, sodium riboflavin phosphate] 95.3

Input CC1=C(C/C=C(\C)CCC[C@H](C)CCC[C@H](C)CCCC(C)C)C(=O)c2ccccc2C1=O 93.9

Input CC(=O)Oc1c(C)c(C)c2c(c1C)CCC(C)(CCC[C@H](C)CCC[C@H](C)CCCC(C)C)O2 (stereo partly drawn) [Vitamin E, tocopherol acetate] 97.6

Input CCCCCCCCCCCCCCCC(=O)OC/C=C(C)/C=C/C=C(C)/C=C/C1=C(C)CCCC1(C)C [Vitamin A, retinol palmitate] 88.9
